Here the recorded EC50 is given for each entry.
test system: Vaccinia virus; test: Antiviral activity against Human Vaccinia virus ATCC VR-1549 infected in African green monkey Vero 76 cells assessed as reduction of virus-plaque formation after 3 days by crystal violet staining; format: functional, organism-based; conditions: Orthopoxvirus vaccinia, ATCC VR-1549, Vero, 72 h

Examples from the recorded data:
COC(=O)c1ccccc1NC(=S)Nc1cccc(C(F)(F)F)c1 : > 100 µM
CSCCCNC(=S)Nc1cccc(C(F)(F)F)c1 : > 100 µM
FC(F)(F)c1cccc(NC(=S)Nc2ccccc2Br)c1 : > 50 µM
Cc1ccc(NC(=S)Nc2cccc(C(F)(F)F)c2)cc1Cl : > 20 µM
CCOC(=O)c1ccc(NC(=S)Nc2cccc(C(F)(F)F)c2)cc1 : > 71 µM
FC(F)(F)c1cccc(NC(=S)Nc2cccc(Br)c2)c1 : > 14 µM
Fc1ccc(NC(=S)Nc2cccc(C(F)(F)F)c2)cc1 : > 40 µM
FC(F)(F)c1cccc(NC(=S)NC2CCCCC2)c1 : > 60 µM

Exam item: Using the record for `N#Cc1ccc(NC(=S)Nc2cccc(C(F)(F)F)c2)cc1` , state its measured EC50.
Marked response: > 10 µM

Exam item: Please list EC50 recorded for the compound `FC(F)(F)c1cccc(NC(=S)Nc2cccc(Cl)c2)c1`
Marked response: > 20 µM

Exam item: Note EC50 for the compound shown: `CC(=O)NC(=S)Nc1cccc(C(F)(F)F)c1`
Marked response: > 100 µM

Exam item: Entry `FC(F)(F)c1cccc(NC(=S)Nc2ccc(Cl)cc2)c1` needs its EC50 filled in; supply it.
Marked response: > 11 µM

====

assay: Cytotoxicity against BHK cells assessed as cell viability after 48 to 96 hrs by MTT assay; assay type: cell-based, Mesocricetus auratus; settings: hamster
measurement label: CC50 (µM)
The reply should be a number in µM, with the unit left off.

CCCC[C@H]1CC[C@H](c2ccc(NC(=S)Nc3cccc(C(F)(F)F)c3)cc2)CC1 : 9.5

Would you kindly look at the next entry?
Exam item: Please give the documented CC50 of `Cc1ccc(NC(=S)Nc2cccc(C(F)(F)F)c2)cc1Cl`
Marked response: 10

====

system: Bacillus cereus; assay: Antimicrobial activity against Bacillus cereus ATCC 11778 at 400 ug after 18 hrs by disc-diffusion method; format: functional; settings: ATCC 11778, 18 h, read-out: IZ
measurement label: zone of inhibition at 400 µg/disc
Report as: number unit

Take a look at these entries with their results.
FC(F)(F)c1cccc(NC(=S)Nc2cccc(Br)c2)c1 : 24 mm
C=C(C)CNC(=S)Nc1cccc(C(F)(F)F)c1 : 16 mm
FC(F)(F)c1cccc(NC(S)=NCc2ccccc2)c1 : 15 mm
FC(F)(F)c1cccc(NC(=S)Nc2ccc(Cl)cc2)c1 : 12 mm

Exam item: Report measured zone of inhibition at 400 µg/disc on Bacillus cereus; entry: `FC(F)(F)c1cccc(NC(=S)NCc2ccco2)c1`
Marked response: 13 mm

====

tested on: Enterococcus faecalis; test: Antimicrobial activity against Enterococcus faecalis ATCC 29212 at 400 ug after 18 hrs by disc-diffusion method; format: functional; settings: ATCC 29212, 18 h, read-out: IZ
measurement label: zone of inhibition at 400 µg/disc (mm)
Please reply with the bare figure in mm and do not write the unit itself.

Exam item: // Input: `FC(F)(F)c1cccc(NC(=S)NCc2ccco2)c1` . Output its zone of inhibition at 400 µg/disc only.
Marked response: 0

Exam item: Provide measured zone of inhibition at 400 µg/disc value, entry: `O=C(NC(=S)Nc1cccc(C(F)(F)F)c1)c1ccccc1`
Marked response: 12

Exam item: Consider the compound `O=C(O)c1cn(C2CC2)c2cc(N3CCNCC3)c(F)cc2c1=O` . State its measured zone of inhibition at 400 µg/disc.
Marked response: 15

====

assay: Cytotoxicity against human MT4 cells; type: cell-based
measurement label: CC50 (µM)
Give the value, in units of µM, as a plain number.

Sample answers from the record:
Cc1ccc(NC(=S)Nc2cccc(C(F)(F)F)c2)cc1Cl : 20
CC[C@H]1CC[C@H](c2ccc(NC(=S)Nc3cccc(C(F)(F)F)c3)cc2)CC1 : 39
FC(F)(F)c1cccc(NC(=S)Nc2cccc(Cl)c2)c1 : 10
Fc1ccc(NC(=S)Nc2cccc(C(F)(F)F)c2)cc1Cl : 8

Now, please, on to the next molecule.
Exam item: Find the measured CC50 of `FC(F)(F)c1cccc(NC(=S)Nc2ccc(I)cc2)c1` and report it.
Marked response: 10

====

# maps each entry to its EC50
assay: Antiviral activity against Bovine viral diarrhea virus 1-NADL ATCC VR-534 infected in MDBK cells assessed as protection against virus-induced cytopathogenicity after 3 to 4 days by MTT assay; assay type: functional, cell-based; conditions: Bovine viral diarrhea virus isolates and strains, ATCC VR-534, MDBK

CC[C@H]1CC[C@H](c2ccc(NC(=S)Nc3cccc(C(F)(F)F)c3)cc2)CC1 : > 9 µM
FC(F)(F)c1cccc(NC(=S)Nc2ccccc2Br)c1 : > 100 µM

Exam item: Determine from records and report EC50 for `Fc1ccccc1NC(=S)Nc1cccc(C(F)(F)F)c1`
Marked response: > 100 µM

Exam item: // Input: `CCOC(=O)c1ccc(NC(=S)Nc2cccc(C(F)(F)F)c2)cc1` . Output its EC50 only.
Marked response: > 64 µM

Exam item: Retrieve EC50 measured for `CSCCCNC(=S)Nc1cccc(C(F)(F)F)c1` and print it.
Marked response: > 100 µM

Exam item: State its EC50 for this compound: `Fc1ccc(NC(=S)Nc2cccc(C(F)(F)F)c2)cc1Cl`
Marked response: > 11 µM

Exam item: Answer with reported EC50 of `FC(F)(F)c1cccc(NC(=S)Nc2cccc(Cl)c2)c1`
Marked response: > 19 µM

Exam item: Give the reported value of EC50 for this record: `FC(F)(F)c1cccc(NC(=S)Nc2ccccc2)c1`
Marked response: > 49 µM

Exam item: Specify EC50 for `FC(F)(F)c1cccc(NC(=S)NC2CCCCC2)c1` and stop.
Marked response: > 48 µM

Exam item: Report EC50, nothing else, for this compound: `CCCC[C@H]1CC[C@H](c2ccc(NC(=S)Nc3cccc(C(F)(F)F)c3)cc2)CC1`
Marked response: > 10 µM

Exam item: Please give measured EC50 of the following entry: `FC(F)(F)c1cccc(NC(=S)Nc2ccc(I)cc2)c1`
Marked response: > 9.5 µM

Exam item: Name the recorded EC50 of the item `FC(F)(F)c1cccc(NC(=S)NCCc2ccccc2)c1` in your answer.
Marked response: > 48 µM

====

assay: Cytotoxicity against bovine MDBK cells assessed as cell viability after 48 to 96 hrs by MTT assay; format: cell-based, Bos taurus; settings: cattle
measurement label: CC50 (µM)
Give the quantity in µM, number only.

FC(F)(F)c1cccc(NC(S)=NCc2ccccc2)c1 : 40

Exam item: Specify CC50 for `CC[C@H]1CC[C@H](c2ccc(NC(=S)Nc3cccc(C(F)(F)F)c3)cc2)CC1` and stop.
Marked response: 9

Exam item: Specify reported CC50 for the compound shown: `Cc1ccc(NC(=S)Nc2cccc(C(F)(F)F)c2)cc1Cl`
Marked response: 10

Exam item: Return the recorded CC50 value; entry: `FC(F)(F)c1cccc(NC(=S)Nc2ccc(Cl)c(Cl)c2)c1`
Marked response: 10

Exam item: Name the recorded CC50 of the item `FC(F)(F)c1cccc(NC(=S)NCCc2ccccc2)c1` in your answer.
Marked response: 48

====

assay: Cytotoxicity against African green monkey Vero 76 cells assessed as cell viability after 48 to 96 hrs by crystal violet staining; assay type: cell-based; conditions: chlorocebus sabaeus
measurement label: CC50 (µM)
Enter your answer as a number in µM; do not include the unit.

Observe how each entry below is paired with its result.
FC(F)(F)c1cccc(NC(S)=NCc2ccccc2)c1 : 35
CCCC[C@H]1CC[C@H](c2ccc(NC(=S)Nc3cccc(C(F)(F)F)c3)cc2)CC1 : 17

Exam item: Retrieve CC50 measured for `O=[N+]([O-])c1ccc(NC(=S)Nc2cccc(C(F)(F)F)c2)cc1` and print it.
Marked response: 10

Exam item: Entry `FC(F)(F)c1cccc(NC(=S)NC2CCCCC2)c1` needs its CC50 filled in; supply it.
Marked response: 60

Exam item: Answer with the recorded CC50 for the compound listed here: `FC(F)(F)c1cccc(NC(=S)Nc2ccc(I)cc2)c1`
Marked response: 9.5

Exam item: Item `FC(F)(F)c1cccc(NC(=S)NCCc2ccccc2)c1` : provide CC50
Marked response: 46

Exam item: Provide CC50 value for the following compound: `Fc1ccc(NC(=S)Nc2cccc(C(F)(F)F)c2)cc1Cl`
Marked response: 20

Exam item: Please supply the value of reported CC50 for the item `CC[C@H]1CC[C@H](c2ccc(NC(=S)Nc3cccc(C(F)(F)F)c3)cc2)CC1`
Marked response: 10

====

test system: Staphylococcus epidermidis; assay: Antimicrobial activity against hospital methicillin-resistant Staphylococcus epidermidis 24/04 after 18 hrs by twofold serial microdilution method; assay type: functional; settings: 24/04, 18 h
Recorded MIC values for a group of compounds are listed next.
Just the number in µg/mL, nothing appended.

Solved cases (2 shown):
FC(F)(F)c1cccc(NC(S)=Nc2ccc(Cl)c(Cl)c2)c1 : 1
FC(F)(F)c1cccc(NC(=S)Nc2cccc(Br)c2)c1 : 4

Exam item: Report the value of MIC obtained on Staphylococcus epidermidis for `FC(F)(F)c1cccc(NC(=S)Nc2ccc(Cl)cc2)c1` .
Marked response: 16

Exam item: State recorded MIC with Staphylococcus epidermidis, entry `Fc1ccc(NC(=S)Nc2cccc(C(F)(F)F)c2)cc1Cl` , no comment.
Marked response: 1

Exam item: Write down the reported MIC (system: Staphylococcus epidermidis) of O=C(O)c1cn(C2CC2)c2cc(N3CCNCC3)c(F)cc2c1=O [CIPROFLOXACIN]
Marked response: 64

Exam item: Jot down MIC (Staphylococcus epidermidis) of `FC(F)(F)c1cccc(NC(S)=NCc2ccccc2)c1` .
Marked response: 16

Exam item: Return reported MIC for target or system Staphylococcus epidermidis, item `Fc1cccc(NC(=S)Nc2cccc(C(F)(F)F)c2)c1` .
Marked response: 8

Exam item: Name the recorded MIC of `FC(F)(F)c1cccc(NC(=S)NCCc2ccccc2)c1` , assay system Staphylococcus epidermidis.
Marked response: 16
